target: DNA polymerase beta D160N (UniProt P06746 1-335, D160N); test: active site titration
Result Type: Kd (nM)
Response body: numeric value in nM, unit text excluded.

// 1 bp-gap (dsDNA) DNA 1: CGCGCCAATCGAGCCATGTCGT DNA 2: GTCAACGACCCACCATTCAAGA DNA 3: TCTTGAATGGTGGGTCGTTGACGACGACATGGCTCGATTGGCGCG : Kd value = 21

FYI, the data here is from paper PMC3624760.
